# ASSAY_TARGET: UniProt:P78527
pKi: −log10 of the molar value.
Reported pKi is given for each of the following compounds.

COMPOUND: CCC(CO)Nc1ccc(-c2cc(NC[C@@H](C)c3cccc4c(C(=O)NC)ccnc34)ncn2)cn1 (some centres unmarked)
RESULT: > 7.52
//
COMPOUND: Cc1ccc(-c2cc(NCC(C)c3cccc4cc(F)cnc34)ncn2)cn1 (centres unmarked)
RESULT: > 7.52
//
COMPOUND: CNC(=O)c1ccnc2c([C@H](C)CNc3cc(-c4cnc(C)s4)ncn3)ccc(F)c12
RESULT: > 7.52

Give the measured pKi of `C=C(CNc1cc(-c2ccc(C)nc2)ncn1)c1cnc(N)nc1OC` .
> 7.52

Next entry: `CNC(=O)c1ncnc2c([C@H](C)CNc3cc(-c4ccc(C)nc4)ncn3)cccc12`
> 7.52

Queued: COc1ccccc1[C@H](C)CNc1cc(-c2ccc(NC(C)CO)nc2)ncn1 (single isomer, unassigned)
> 7.52

And `COc1ccccc1[C@H](C)CNc1cc(-c2ccnc(NCCCO)c2)ncn1` ?
> 7.52

Would you kindly repeat that for Cc1ccc(-c2cc(NCC(C)c3ccnc4cccnc34)ncn2)cn1 (centres unmarked) ?
> 7.52

* * *

pKi: −log10 of the molar value.
Notes on pKi obtained with DNA-PK (Homo sapiens, UniProt P78527).

SUBSTANCE_SMILES: CNC(=O)c1ccnc2c([C@H](C)CNc3cc(-c4ccc(C)cc4F)ncn3)cccc12
ASSAY_TARGET: DNA-PK (Homo sapiens, UniProt P78527)
pKi: > 7.52
--
SUBSTANCE_SMILES: CNC(=O)c1ccnc2c([C@H](C)CNc3cc(-c4cnc(C#N)c(OC)c4)ncn3)cccc12
ASSAY_TARGET: DNA-PK (Homo sapiens, UniProt P78527)
pKi: > 7.52
--
SUBSTANCE_SMILES: COCCn1ncc2cc(-c3cc(NC[C@@H](C)c4ccccc4OC)ncn3)cnc21
ASSAY_TARGET: DNA-PK (Homo sapiens, UniProt P78527)
pKi: > 7.52

Requested read-out: pKi. Entry: `CNC(=O)c1ccnc2c([C@H](C)CNc3cc(-c4ccc(O)cc4)ncn3)cccc12`
> 7.52

* * *

// pKi collected for DNA-PK (Homo sapiens, UniProt P78527)
pKi: −log10 of the molar value.

COMPOUND: C[C@H](CNc1cc(-c2ccc(C(=O)NCCC#N)cc2)ncn1)c1ccnc2c1OCC2
pKi: > 7.52
--
COMPOUND: CNC(=O)c1ccnc2c([C@H](C)CNc3cc(-c4ccc(NCc5nc6ccccc6[nH]5)nc4)ncn3)cccc12
pKi: > 7.52
--
COMPOUND: CNC(=O)c1ccnc2c([C@H](C)CNc3cc(-c4cnc(OC)c(N)c4)ncn3)ccc(F)c12
pKi: > 7.52
--
COMPOUND: C[C@H](CNc1cc(-c2cnc3c(cnn3C3COC3)c2)ncn1)c1ccnc2c1OCC2
pKi: > 7.52
--
COMPOUND: CNC(=O)c1c(F)cnc2c([C@H](C)CNc3cc(-c4ccc(C(C)(C)O)nc4)ncn3)cccc12
pKi: > 7.52

Shifting focus to the compound that follows.
Which pKi is reported for this compound? `C[C@H](CNc1cc(-c2ccc3ncccc3c2)ncn1)c1ccnc2cccnc12`
> 7.52

* * *

Values of pKi reported for DNA-PK (Homo sapiens) appear below.
pKi: −log10 of the molar value.

# count of solved cases: 3
MOLECULE: CNC(=O)c1ccnc2c([C@H](C)CNc3cc(-c4ccc(C(=O)O)s4)ncn3)cccc12 [Compound 775]
pKi: > 7.52

MOLECULE: COc1cscc1C(C)CNc1cc(-c2cnc3c(cnn3CCO)c2)ncn1 (stereo not drawn) [Compound 261]
pKi: > 7.52

MOLECULE: CNC(=O)c1ccc([C@H](C)CNc2cc(-c3ccc(NC(CO)CO)nc3)ncn2)c(OC)c1 [Compound 353]
pKi: > 7.52

Give its pKi value. Item: CNC(=O)c1ccnc2c([C@H](C)CNc3cc(-c4ccc(C5CC5)nc4)ncn3)ccc(F)c12 [Compound 852]
> 7.52

Let us now turn to CNC(=O)c1ccnc2c([C@H](C)CNc3cc(-c4ccc(C#N)cc4)ncn3)cccc12 [Compound 683]
> 7.52

Entry to check: CNC(=O)c1ccnc2c([C@H](C)CNc3cc(-c4cnc(OC)c(COC)c4)ncn3)cccc12 [Compound 944]
> 7.52

Now this one: COc1sccc1C(C)CNc1cc(-c2ccc(C)nc2)ncn1 (stereo not drawn) [Compound 257]
> 7.52

* * *

// values below are pKi; system is DNA-PK (Homo sapiens, UniProt P78527)
pKi: −log10 of the molar value.

COMPOUND: Cc1ccc(-c2cc(NCC(C)c3ccc(F)cc3OC3CC3)ncn2)cn1 (centres unmarked)
RESULT: > 7.52

The record that follows has no pKi shown yet.
State the recorded pKi for this entry: `Cc1ccc(-c2cc(NC[C@@H](C)c3cccc4c3OCC4)ncn2)cn1`
> 7.52

* * *

# ASSAY_TARGET: DNA-PK (Homo sapiens)
# PROCEDURE_TEXT: DNA-PK inhibition assay (radiometric, 33P-ATP)
# Assay type: biochemical
# MEASUREMENT_CONDITIONS: 100 μM ATP, competitive tight-binding fit
MEASURE_NAME: Ki

Consider the reported Ki for these compounds:
COMPOUND: CNC(=O)c1ccnc2c([C@H](C)CNc3cc(-c4ccc(N5CCC(C(C)(C)O)CC5)nc4)ncn3)cccc12 [Compound 734]
Ki: < 0.03 µM
--
COMPOUND: CC(CNc1cc(-c2cnc3[nH]ncc3c2)ncn1)c1ccccc1OC1COC1 (stereo not drawn) [Compound 214]
Ki: < 0.03 µM

Query Ki on DNA-PK (Homo sapiens) for CNC(=O)c1ccc([C@H](C)CNc2cc(-c3ccc(NC4CC4)nc3)ncn2)c(OC)c1 [Compound 388]
< 0.03 µM

Try this compound next: CNC(=O)c1ccnc2c([C@H](C)CNc3cc(-c4ccc(N5CCN(C(C)C)CC5)nc4)ncn3)cccc12 [Compound 722]
< 0.03 µM

Consider next the compound CNC(=O)c1ccnc2c([C@H](C)CNc3cc(-c4cncnc4)ncn3)cccc12 [Compound 605] in the same way.
< 0.03 µM

Here is the next compound: COc1ccccc1[C@H](C)CNc1cc(-c2ccc(N(C)C3CCN(C)CC3)nc2)ncn1 [Compound 223]
< 0.03 µM
